System: gray mold fungus (Botrytis cinerea)
assay_comment: Cucumber leaf disk preventive test against gray mold
Type: in vivo
measurement_context: Botrytis cinerea, foliar, 96 h; partner fungicide alone 5.0 ppm, dimethyl sulfoxide solution; cucumber leaf disk, 15° C., four days; read-out: preventive value (%)
measurement_type: pest or weed control at 5 ppm (%)
// units = %; emit number, no label

compound	test_target	measurement_type	measure_unit	observed_value
O=C(Cc1ccccc1)N/C(=N\OCC1CC1)c1c(C(F)(F)F)ccc(F)c1F [cyflufenamid]	gray mold fungus (Botrytis cinerea)	pest or weed control at 5 ppm	%	15
O=[N+]([O-])c1cc(C(F)(F)F)c(Cl)c([N+](=O)[O-])c1Nc1ncc(C(F)(F)F)cc1Cl [fluazinam]	gray mold fungus (Botrytis cinerea)	pest or weed control at 5 ppm	%	52
N#Cc1c(Cl)c(Cl)c(Cl)c(C#N)c1Cl [chlorothalonil]	gray mold fungus (Botrytis cinerea)	pest or weed control at 5 ppm	%	45
N#Cc1sc2c(=O)c3ccccc3c(=O)c=2sc1C#N [dithianon]	gray mold fungus (Botrytis cinerea)	pest or weed control at 5 ppm	%	20
CCCN(CC)CC1COC2(CCC(C(C)(C)C)CC2)O1 (stereo not shown) [spiroxamine]	gray mold fungus (Botrytis cinerea)	pest or weed control at 5 ppm	%	15

Task item: Look up and state reported pest or weed control at 5 ppm for O=C1OCc2ccccc21 [phthalide]
Reply: 15

Task item: Look up and state reported pest or weed control at 5 ppm for CCOc1ccc(NC(=O)OC(C)C)cc1OCC [diethofencarb]
Reply: 0
